Assay: Solubility was measured in D2O using 1H NMR integration of the C-20 ethyl group against internal standard 1,4-dioxane
Assay type: physicochemical
Examples of molecules with documented solubility follow.
Your answer should be a plain number; it is taken to be in µg/mL.

Observe how each entry below is paired with its result.
CC[C@@]1(O)C(=O)OCc2c1cc1n(c2=O)Cc2c-1nc1cc3c(cc1c2C[n+]1ccncc1)OCO3 | 1400
CC[C@@]1(O)C(=O)OCc2c1cc1n(c2=O)Cc2c-1nc1cc3c(cc1c2C[n+]1ccncc1)OCCO3 | 1400
CC[C@@]1(O)C(=O)OCc2c1cc1n(c2=O)Cc2c-1nc1cc3c(cc1c2C[n+]1cccc(CO)c1)OCCO3 | 1200
CC[C@@]1(O)C(=O)OCc2c1cc1n(c2=O)Cc2c-1nc1cc3c(cc1c2C[n+]1ccccn1)OCCO3 | 910
CC[C@@]1(O)C(=O)OCc2c1cc1n(c2=O)Cc2c-1nc1cc3c(cc1c2Cn1cc[n+](C)c1)OCCO3 | 1300
CC[C@@]1(O)C(=O)OCc2c1cc1n(c2=O)Cc2cc3c(CN(C)C)c(O)ccc3nc2-1 | 2100

Form: molecule = "CC[C@@]1(O)C(=O)OCc2c1cc1n(c2=O)Cc2c-1nc1cc3c(cc1c2C[n+]1ccc(CO)cc1)OCCO3" ; solubility = 1100

Form: molecule = "CC[C@@]1(O)C(=O)OCc2c1cc1n(c2=O)Cc2c-1nc1cc3c(cc1c2C[n+]1ccccc1)OCCO3" ; solubility = 1800

---

Examples of compounds with documented Ratio follow.
Test: MDR ratio is defined as the quotient of SKVLB IC50/SKOV3 IC50
Assay type: functional
Simply state the number, no unit and no words.

Form: compound = "CC[C@@]1(O)C(=O)OCc2c1cc1n(c2=O)Cc2c-1nc1cc3c(cc1c2C[n+]1ccncc1)OCCO3" ; Ratio = 80

Form: compound = "CC[C@@]1(O)C(=O)OCc2c1cc1n(c2=O)Cc2c-1nc1cc3c(cc1c2C[n+]1ccccn1)OCCO3" ; Ratio = 1

Form: compound = "CC[C@@]1(O)C(=O)OCc2c1cc1n(c2=O)Cc2c-1nc1cc3c(cc1c2C[n+]1cccc(CO)c1)OCO3" ; Ratio = 2

Form: compound = "CC[C@@]1(O)C(=O)OCc2c1cc1n(c2=O)Cc2c-1nc1cc3c(cc1c2C[n+]1ccncc1)OCO3" ; Ratio = 4

Form: compound = COc1cccc2c1C(=O)c1c(O)c3c(c(O)c1C2=O)C[C@@](O)(C(=O)CO)C[C@@H]3O[C@H]1C[C@H](N)[C@H](O)[C@H](C)O1 [DOXORUBICIN] ; Ratio = 160

Form: compound = "CC[C@@]1(O)C(=O)OCc2c1cc1n(c2=O)Cc2c-1nc1cc3c(cc1c2Cn1cc[n+](C)c1)OCO3" ; Ratio = 9

Form: compound = "CC[C@@]1(O)C(=O)OCc2c1cc1n(c2=O)Cc2c-1nc1cc3c(cc1c2C[n+]1ccccc1)OCCO3" ; Ratio = 1

Form: compound = "CC[C@@]1(O)C(=O)OCc2c1cc1n(c2=O)Cc2c-1nc1cc3c(cc1c2C[n+]1ccccc1)OCO3" ; Ratio = 1

Form: compound = "CC[C@@]1(O)C(=O)OCc2c1cc1n(c2=O)Cc2c-1nc1cc3c(cc1c2C[n+]1ccccn1)OCO3" ; Ratio = 2
